Experiment: chemical genetic growth profiling, strain panel (AID 1159580);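 also: tested at 20 µM; growth read once vehicle control cultures reached saturation at 30 °C; 1 = growth at the plate median or of vehicle wells; lower values mean less growth of the strain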
Conditions: S. cerevisiae deletion strains, growth OD, locus YIR030C, strain dcg1, hits give low values
Screen size: about 5,500 compounds; about 2,000 (36%) were called active. About 18% were inconclusive and are not listed. The list shows a part of the results.
We begin with a simple list: items and their reported normalized growth.
// return just the number, without any unit appended

compound CC(=O)OC1CCC2C3CCc4cc(O)ccc4C3CCC12C (stereo unspecified) , normalized growth observed: 1.02

compound COc1c2occc2cc2ccc(=O)oc12 , normalized growth observed: 0.998

compound C[C@]12CCC3c4ccc(O)cc4CCC3C1CC[C@@H]2OC(=O)CCC1CCCC1 (stereo partly specified) , normalized growth observed: 1.01

compound CC(=O)Oc1ccc2c(c1)CCC1C2CC[C@@]2(C)C1CC[C@@H]2OC(C)=O (stereo partly specified) , normalized growth observed: 0.981

compound O=c1cc(-c2ccc(O)cc2)oc2cc(O[C@@H]3O[C@H](CO)[C@@H](O)[C@H](O)[C@H]3O[C@@H]3OC[C@](O)(CO)[C@H]3O)cc(O)c12 , normalized growth observed: 1

compound CCCCC(=O)O[C@H]1CCC2C3CCc4cc(O)ccc4C3CC[C@@]21C (stereo partly specified) , normalized growth observed: 1.01

---

Test: chemical genetic growth profiling, strain panel (AID 1159580);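 also: tested at 20 µM; growth read once vehicle control cultures reached saturation at 30 °C; 1 = growth at the plate median or of vehicle wells; lower values mean less growth of the strain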
Conditions: S. cerevisiae deletion strains, growth OD, locus YFR028C, strain CDC14, hits give low values
Out of some 5,500 compounds screened, about 2,000 (36%) were called active. Inconclusive results (about 18%) are left out. The list shows a part of the results.
We begin with a simple list: items and their reported normalized growth.
// return just the number, without any unit appended

compound CCC1(c2ccccc2)OC(c2cc(Cl)cc(Cl)c2O)Nc2ccccc21 (stereo not given) , normalized growth observed: 0.963

compound Cc1nc(C(F)(F)F)ccc1C(=O)Sc1nnc(-c2ccc(C(F)(F)F)nc2C)o1 , normalized growth observed: 0.959

compound Cc1oc(-c2ccc(Cl)cc2)cc1C(=O)N1CCN(c2ccc(C(F)(F)F)cn2)CC1 , normalized growth observed: 0.976

compound COC(=O)c1ccc(Oc2c(C(F)(F)F)oc3cc(O)ccc3c2=O)cc1 , normalized growth observed: 0.965

Others:
compound CCCCCc1ccc(S(=O)(=O)Nc2ncc(C)cc2Br)cc1 , normalized growth observed: 0.95

---

We begin with a simple list: items and their reported normalized growth.
Test: chemical genetic growth profiling, strain panel (AID 1159580);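 also: tested at 20 µM; growth read once vehicle control cultures reached saturation at 30 °C; 1 = growth at the plate median or of vehicle wells; lower values mean less growth of the strain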
Settings: S. cerevisiae deletion strains, growth OD, locus YCL011C, strain gbp2, hits give low values
Screen size: about 5,500 compounds; about 2,000 (36%) were called active. Inconclusive results (about 18%) are left out. Some of the results follow.

Example entries and their recorded answers appear below.
compound COc1ccc2c(=O)c(-c3cc4c(cc3OC)OCO4)coc2c1 , normalized growth observed: 1.01 (inactive)

compound CC(C)=CCc1c(O)cc2occ(-c3ccc4c(c3)OCO4)c(=O)c2c1O , normalized growth observed: 0.909 (inactive)

compound Cn1cnc([N+](=O)[O-])c1Sc1ncnc2nc[nH]c12 , normalized growth observed: 1.01 (inactive)

Others:
compound O=c1c(-c2ccc3c(c2)OCO3)coc2cc(O)ccc12 , normalized growth observed: 0.999 (inactive)

compound COc1cc2c(cc1-c1coc3c4c(c(OC)cc3c1=O)OC(C)(C)C=C4)OCO2 , normalized growth observed: 1 (inactive)

compound CCS(=O)(=O)CCn1c([N+](=O)[O-])cnc1C , normalized growth observed: 1 (inactive)

Values compiled from PubChem BioAssay AID1159580.
